test: Tmax in Sprague-Dawley rat at 15 mg/kg, po measured upto 24 hrs by UPLC analysis; type: ADME, organism-based; settings: in vivo
Assay Endpoint: Tmax
Report the figure along with its unit, number first.

// lookup Tmax for "N#CCc1cnc(-c2ccc(Cl)c(Cl)c2)n1-c1ccnc(N[C@H]2CCCN(C(=O)C3CC3)C2)n1"
40.2 min

====

Assay Endpoint: IC50
Report the figure along with its unit, number first.

Please state recorded IC50 (tested on Glycogen synthase kinase-3 alpha (Homo sapiens, UniProt P49840)) of "N#CCc1cnc(-c2ccc3ccccc3c2)n1-c1ccnc(N[C@H]2CCCN(C(=O)C3CC3)C2)n1"
Sequence (P49840 whole entry): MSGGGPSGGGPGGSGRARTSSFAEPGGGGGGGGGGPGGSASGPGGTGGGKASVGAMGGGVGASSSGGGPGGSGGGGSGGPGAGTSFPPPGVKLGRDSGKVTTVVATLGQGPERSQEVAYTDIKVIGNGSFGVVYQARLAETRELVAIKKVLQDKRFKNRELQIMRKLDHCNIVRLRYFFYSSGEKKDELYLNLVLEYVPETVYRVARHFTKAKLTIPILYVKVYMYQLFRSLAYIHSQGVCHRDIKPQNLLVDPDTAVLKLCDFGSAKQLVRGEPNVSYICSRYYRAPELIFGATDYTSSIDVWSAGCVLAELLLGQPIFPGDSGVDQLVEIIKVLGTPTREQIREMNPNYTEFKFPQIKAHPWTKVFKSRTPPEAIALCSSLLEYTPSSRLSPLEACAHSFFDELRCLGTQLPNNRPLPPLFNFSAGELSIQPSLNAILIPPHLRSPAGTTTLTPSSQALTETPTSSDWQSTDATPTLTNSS
5.78 µM

====

assay: Plasma concentration in Sprague-Dawley rat at 30 mg/kg, po measured at Tmax; assay type: ADME, organism-based
Assay Endpoint: Cmax (ng/mL)
Field: numeric (ng/mL). Do not append units.

// lookup Cmax for "N#CCc1cnc(-c2ccc3ccccc3c2)n1-c1ccnc(N[C@H]2CCCN(C(=O)C3CC3)C2)n1"
1080

// lookup Cmax for "N#CCc1cnc(-c2ccc3c(c2)CCO3)n1-c1ccnc(N[C@H]2CCCN(C(=O)C3CC3)C2)n1"
5910

====

experiment: AUC in Sprague-Dawley rat at 1 mg/kg, iv measured upto 24 hrs by UPLC analysis; type: ADME, organism-based; parameters: dose 1 mg/kg, time < 24 hrs, route iv; conditions: in vivo
Assay Endpoint: AUC at 24 h (ng·h/mL)
Field: numeric (ng·h/mL). Do not append units.

// lookup AUC at 24 h for "N#CCc1cnc(-c2ccc(Cl)c(Cl)c2)n1-c1ccnc(N[C@H]2CCCN(C(=O)C3CC3)C2)n1"
902

// lookup AUC at 24 h for "N#CCc1cnc(-c2ccc3ccccc3c2)n1-c1ccnc(N[C@H]2CCCN(C(=O)C3CC3)C2)n1"
718

// lookup AUC at 24 h for "N#CCc1cnc(-c2ccc3c(c2)CCO3)n1-c1ccnc(N[C@H]2CCCN(C(=O)C3CC3)C2)n1"
1090

====

experiment: Half life in Sprague-Dawley rat at 1 mg/kg, iv measured upto 24 hrs by UPLC analysis; type: ADME, organism-based; conditions: in vivo
I'd be grateful if you could share measured half-life for these entries.
Field: numeric (min). Do not append units.

// lookup half-life for "N#CCc1cnc(-c2ccc3c(c2)CCO3)n1-c1ccnc(N[C@H]2CCCN(C(=O)C3CC3)C2)n1"
21.6

// lookup half-life for "N#CCc1cnc(-c2ccc3ccccc3c2)n1-c1ccnc(N[C@H]2CCCN(C(=O)C3CC3)C2)n1"
13.2

// lookup half-life for "N#CCc1cnc(-c2ccc(Cl)c(Cl)c2)n1-c1ccnc(N[C@H]2CCCN(C(=O)C3CC3)C2)n1"
12.6

====

biological target: Dual specificity mitogen-activated protein kinase kinase 4 (Homo sapiens); test: Inhibition of MKK4 (unknown origin) assessed as incorporation of 33P-ATP
Sequence (P45985 whole entry): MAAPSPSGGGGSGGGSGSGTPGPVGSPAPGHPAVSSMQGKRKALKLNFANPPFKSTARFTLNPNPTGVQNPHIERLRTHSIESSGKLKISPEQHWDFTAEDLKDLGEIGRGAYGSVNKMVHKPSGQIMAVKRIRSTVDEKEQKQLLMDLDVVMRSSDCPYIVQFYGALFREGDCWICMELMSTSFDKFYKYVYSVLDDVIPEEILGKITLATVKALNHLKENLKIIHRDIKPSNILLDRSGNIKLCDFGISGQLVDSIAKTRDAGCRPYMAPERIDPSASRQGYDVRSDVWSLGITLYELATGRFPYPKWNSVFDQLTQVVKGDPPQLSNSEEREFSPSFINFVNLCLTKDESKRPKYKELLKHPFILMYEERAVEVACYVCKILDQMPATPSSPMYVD
Assay Endpoint: IC50 (nM)
Field: numeric (nM). Do not append units.

// lookup IC50 for "N#CCc1cnc(-c2ccc3ccccc3c2)n1-c1ccnc(N[C@H]2CCCN(C(=O)C3CC3)C2)n1"
970

====

target: Mitogen-activated protein kinase 8 (Homo sapiens); test: Inhibition of human JNK1alpha1 assessed as incorporation of 33P-ATP
Assay Endpoint: IC50 (nM)
Field: numeric (nM). Do not append units.

// lookup IC50 for "N#CCc1cnc(-c2ccc3ccccc3c2)n1-c1ccnc(N[C@H]2CCCN(C(=O)C3CC3)C2)n1"
860

====

target: Mitogen-activated protein kinase 10 (Homo sapiens, UniProt P53779); test: Inhibition of human JNK3 incubated for 40 mins in presence of ATP and [gamma33P-ATP] by scintillation counting method; conditions: read-out: IC50
Sequence (P53779 whole entry): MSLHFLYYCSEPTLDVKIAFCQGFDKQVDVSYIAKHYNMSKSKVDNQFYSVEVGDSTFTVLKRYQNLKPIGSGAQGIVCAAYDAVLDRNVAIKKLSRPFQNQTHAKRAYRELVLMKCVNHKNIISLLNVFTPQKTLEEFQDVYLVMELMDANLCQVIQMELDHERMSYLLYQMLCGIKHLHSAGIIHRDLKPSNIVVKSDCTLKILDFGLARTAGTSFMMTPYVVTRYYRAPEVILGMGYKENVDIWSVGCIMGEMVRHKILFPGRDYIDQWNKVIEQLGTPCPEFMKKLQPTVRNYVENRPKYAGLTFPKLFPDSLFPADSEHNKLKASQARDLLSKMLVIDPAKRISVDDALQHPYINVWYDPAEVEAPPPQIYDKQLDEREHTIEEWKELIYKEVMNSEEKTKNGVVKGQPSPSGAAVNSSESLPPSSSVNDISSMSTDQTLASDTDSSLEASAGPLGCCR
Assay Endpoint: IC50 (nM)
Field: numeric (nM). Do not append units.

// lookup IC50 for "C[C@@H](O)CNc1nccc(-n2c(CC#N)cnc2-c2ccc3c(c2)OCCO3)n1"
9840

// lookup IC50 for "O=C(C1CC1)N1CCC[C@H](Nc2nccc(-n3c(-c4ccc5c(c4)OCCO5)nc4cc(O)c(O)cc43)n2)C1"
10

// lookup IC50 for "N#CCc1cnc(-c2ccc(F)c(C(F)(F)F)c2)n1-c1ccnc(NC2CCCCC2)n1"
10000

// lookup IC50 for "N#CCc1cnc(-c2ccc(Cl)c(Cl)c2)n1-c1ccnc(N[C@H]2CCCN(C(=O)NC3CC3)C2)n1"
5.3

// lookup IC50 for "N#CCc1cnc(-c2ccc(Cl)c(Cl)c2)n1-c1ccnc(NC2CCOCC2)n1"
290

// lookup IC50 for N#CCc1cnc(C2=CC3OCCOC3C=C2)n1-c1ccnc(N[C@H]2CCCN(C(=O)C3CC3)C2)n1 (some centres undefined)
1520

====

target: Mitogen-activated protein kinase 8 (Homo sapiens, UniProt P45983); experiment: Inhibition of human JNK1 incubated for 40 mins in presence of ATP and [gamma33P-ATP] by scintillation counting method
Sequence (P45983 whole entry): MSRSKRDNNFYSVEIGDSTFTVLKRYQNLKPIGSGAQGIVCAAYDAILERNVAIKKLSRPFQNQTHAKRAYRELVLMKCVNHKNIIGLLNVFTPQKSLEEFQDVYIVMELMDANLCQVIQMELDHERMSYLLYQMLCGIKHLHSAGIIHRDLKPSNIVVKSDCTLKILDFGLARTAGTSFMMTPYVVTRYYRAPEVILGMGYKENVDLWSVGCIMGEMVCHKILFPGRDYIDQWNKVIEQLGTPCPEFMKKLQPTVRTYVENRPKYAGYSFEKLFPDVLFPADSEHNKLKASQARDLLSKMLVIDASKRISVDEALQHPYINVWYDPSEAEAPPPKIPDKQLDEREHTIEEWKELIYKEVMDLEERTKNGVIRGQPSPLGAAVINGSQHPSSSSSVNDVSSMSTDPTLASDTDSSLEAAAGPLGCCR
I'd be grateful if you could share measured pIC50 for these entries.
Note on units: pIC50 is unitless, being -log10 of a concentration expressed in mol/L.

// lookup pIC50 for "N#CCc1cnc(-c2ccc3ccccc3c2)n1-c1ccnc(Nc2cccc(C(=O)C3CC3)c2)n1"
5.76

// lookup pIC50 for "N#CCc1cnc(-c2ccc3ccccc3c2)n1-c1ccnc(N[C@H]2CCCN(C(=O)C3CC3)C2)n1"
6.53

// lookup pIC50 for "N#CCc1cnc(-c2ccc3ccccc3c2)n1-c1ccnc(N[C@H]2CCCCN(C(=O)C3CC3)C2)n1"
6.02

// lookup pIC50 for "N#CCc1cnc(-c2ccc3ccccc3c2)n1-c1ccnc(N[C@@H]2CCCN(C(=O)C3CC3)C2)n1"
6.68

// lookup pIC50 for "N#CCc1cnc(-c2ccc(Cl)c(Cl)c2)n1-c1ccnc(N[C@H]2CCCN(C(=O)NC3CC3)C2)n1"
6.29

// lookup pIC50 for "N#CCc1cnc(-c2ccc3c(c2)CCO3)n1-c1ccnc(N[C@H]2CCCN(C(=O)C3CC3)C2)n1"
6.83

// lookup pIC50 for "CC(C)(C)C(=O)N1CCC[C@H](Nc2nccc(-n3c(CC#N)cnc3-c3ccc(Cl)c(Cl)c3)n2)C1"
6.35

// lookup pIC50 for "N#CCc1cnc(-c2ccc3occc3c2)n1-c1ccnc(N[C@H]2CCCN(C(=O)C3CC3)C2)n1"
6.45

// lookup pIC50 for "N#CCc1cnc(-c2ccc(Cl)c(Cl)c2)n1-c1ccnc(N[C@H]2CCCN(C(=O)C3CC3)C2)n1"
6.51

====

assay: Efflux ratio of apparent permeability basolateral to apical side over apical to basolateral side in human Caco-2 cells at 10 uM incubated for 1 hr by LC-MS/MS analysis; format: ADME, cell-based
Assay Endpoint: efflux ratio at 1 h, 10 µM
Please reply with the value in numeric form only.

// lookup efflux ratio at 1 h, 10 µM for "N#CCc1cnc(-c2ccc3c(c2)CCO3)n1-c1ccnc(N[C@H]2CCCN(C(=O)C3CC3)C2)n1"
2.86

// lookup efflux ratio at 1 h, 10 µM for "N#CCc1cnc(-c2ccc3ccccc3c2)n1-c1ccnc(N[C@H]2CCCN(C(=O)C3CC3)C2)n1"
1.92

====

target: Mitogen-activated protein kinase 14 (Homo sapiens); assay: Inhibition of human SAPK2a assessed as incorporation of 33P-ATP
Sequence (Q16539 whole entry): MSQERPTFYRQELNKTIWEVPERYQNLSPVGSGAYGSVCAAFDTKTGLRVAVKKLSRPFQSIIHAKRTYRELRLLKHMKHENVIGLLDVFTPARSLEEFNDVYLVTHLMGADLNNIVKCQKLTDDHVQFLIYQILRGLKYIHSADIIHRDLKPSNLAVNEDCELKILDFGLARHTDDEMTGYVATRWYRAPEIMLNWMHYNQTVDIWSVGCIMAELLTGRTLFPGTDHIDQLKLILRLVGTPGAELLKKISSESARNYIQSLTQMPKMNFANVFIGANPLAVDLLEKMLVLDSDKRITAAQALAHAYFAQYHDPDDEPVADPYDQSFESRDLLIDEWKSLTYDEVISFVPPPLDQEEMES
Assay Endpoint: IC50

// lookup IC50 for "N#CCc1cnc(-c2ccc3ccccc3c2)n1-c1ccnc(N[C@H]2CCCN(C(=O)C3CC3)C2)n1"
310 nM

====

biological target: Mitogen-activated protein kinase 10 (Homo sapiens, UniProt P53779); assay: Inhibition of human JNK3 incubated for 40 mins in presence of ATP and [gamma33P-ATP] by scintillation counting method; conditions: read-out: IC50
pIC50: −log10 of the molar value.
We use 6 as the dividing line for pIC50: on or above the line is t, below is f.

Test whether the compound "C[C@@H](O)CNc1nccc(-n2c(CC#N)cnc2-c2ccc3ccccc3c2)n1" records pIC50 of 6 or higher.
f

Test whether the compound "N#CCc1cnc(-c2ccc3c(c2)CCO3)n1-c1ccnc(N[C@H]2CCCN(C(=O)C3CC3)C2)n1" records pIC50 of 6 or higher.
t

Test whether the compound "N#CCc1cnc(-c2ccc3ccccc3n2)n1-c1ccnc(N[C@H]2CCCN(C(=O)C3CC3)C2)n1" records pIC50 of 6 or higher.
t

Test whether the compound "N#CCc1cnc(-c2ccc3ccccc3c2)n1-c1ccnc(NC2CCOCC2)n1" records pIC50 of 6 or higher.
t

Test whether the compound "CC(C)(C)C(=O)N1CCC[C@H](Nc2nccc(-n3c(CC#N)cnc3-c3ccc(Cl)c(Cl)c3)n2)C1" records pIC50 of 6 or higher.
t

====

assay: AUC in Sprague-Dawley rat at 3 mg/kg, po measured upto 24 hrs by UPLC analysis; type: ADME, organism-based; design: time < 24 hrs, dose 3 mg/kg, route po; settings: in vivo
Assay Endpoint: AUC at 24 h (ng·h/mL)
Field: numeric (ng·h/mL). Do not append units.

// lookup AUC at 24 h for "N#CCc1cnc(-c2ccc3ccccc3c2)n1-c1ccnc(N[C@H]2CCCN(C(=O)C3CC3)C2)n1"
338

Source: ChEMBL document CHEMBL5385844
